Would you kindly list damage to plant (100=total damage to plant; 0=no damage to plant), SETFA for each of these molecules?
- Tested on: plants
- TEST_METHOD_NOTES: Test D post-emergence, other plants of Tables D2 and D4
- Assay type: in vivo
- EXPERIMENTAL_PARAMETERS: post-emergence, SETFA, rate 250, evaluated after 15 d
Please reply with the number alone, leaving off any unit.

Data request: damage to plant (100=total damage to plant; 0=no damage to plant), SETFA lookup needed for CN1C[C@H](c2nn(C)c3c(F)cccc23)[C@@H](C(=O)Nc2cccc(F)c2F)C1=O [Compound 2] , thanks.
Data returned: 70

Data request: Ok, now COc1c(F)cccc1NC(=O)C1C(=O)N(C)CC1c1cc(C(F)(F)F)n(C)n1 (racemic) [Compound 18]
Data returned: 30

Data request: Ok, now CN1CC(c2cc(C(F)(F)F)n(C)n2)C(C(=O)Nc2cccc(F)c2F)C1=O (racemic) [Compound 3]
Data returned: 0

Data request: Ok, now CCn1nc([C@H]2CN(C)C(=O)[C@@H]2C(=O)Nc2cccc(F)c2F)c2cc(F)ccc21 [Compound 8]
Data returned: 60

Data request: Ok, now CCn1nc([C@H]2CN(C)C(=O)[C@@H]2C(=O)Nc2cccc(F)c2F)c2c(F)cccc21 [Compound 7]
Data returned: 70

Data request: Ok, now CN1CC(c2cc(C(F)(F)F)n(C)n2)C(C(=O)Nc2ccc(F)cc2C(C)(F)F)C1=O (racemic) [Compound 26]
Data returned: 60
